# Ki values compiled below
target: Carbonic anhydrase 9 (Homo sapiens)
Respond numerically; units are nM and should not be typed.

SMILES CODE	REPORTED ENDPOINT	ENDPOINT VALUE
Cc1cc(S(=O)(=O)NC(=N)NCc2ccc(S(N)(=O)=O)cc2)c(SCc2cc(=O)[nH]c3ccccc23)cc1Cl	Ki	310

Query: Quick check: Ki of `Cc1cc(S(=O)(=O)NC(=N)Nc2nnc(S(N)(=O)=O)s2)c(SCc2cccc3ccccc23)cc1Cl` ?
Response: 9.4

Query: Quick check: Ki of `Cc1cc(S(=O)(=O)NC(=N)NNc2ccc(S(N)(=O)=O)cc2)c(SCc2cccc(C(F)(F)F)c2)cc1Cl` ?
Response: 21

###

tested on: HOP-92; experiment: Cytotoxicity against human HOP92 cells at 10 uM; type: functional; settings: read-out: GI
REPORTED ENDPOINT: inhibition of growth at 10 µM (%)
Respond numerically; units are % and should not be typed.

SMILES CODE	UNIT STRING	inhibition of growth at 10 µM
Cc1cc(S(=O)(=O)NC(=N)Nc2cccc(S(N)(=O)=O)c2)c(SCc2ccccc2)cc1Cl	%	46
Cc1cc(S(=O)(=O)NC(=N)NCc2ccc(S(N)(=O)=O)cc2)c(SCc2ccccc2)cc1Cl	%	63
Cc1cc(S(=O)(=O)NC(=N)NCc2ccc(S(N)(=O)=O)cc2)c(SCc2ccc(C(F)(F)F)cc2)cc1Cl	%	89
Cc1cc(S(=O)(=O)NC(=N)Nc2ccc(S(N)(=O)=O)cc2)c(SCc2ccc(C(F)(F)F)cc2)cc1Cl	%	58
Cc1cc(S(=O)(=O)NC(=N)Nc2nnc(S(N)(=O)=O)s2)c(SCc2ccccc2)cc1Cl	%	1
Cc1cc(S(=O)(=O)NC(=N)Nc2nnc(S(N)(=O)=O)s2)c(SCc2cccc3ccccc23)cc1Cl	%	3
Cc1cc(S(=O)(=O)NC(=N)Nc2ccc(S(N)(=O)=O)cc2)c(SCc2cc3c(cc2Cl)OCO3)cc1Cl	%	29
Cc1cc(S(=O)(=O)NC(=N)NCc2ccc(S(N)(=O)=O)cc2)c(SCc2cc3c(cc2Cl)OCO3)cc1Cl	%	57

Moving on to another compound below.
Query: Quick check: inhibition of growth at 10 µM of `Cc1cc(S(=O)(=O)NC(=N)Nc2cccc(S(N)(=O)=O)c2)c(SCc2ccc(C(F)(F)F)cc2)cc1Cl` ?
Response: 37

###

Carbonic anhydrase 9 (Homo sapiens, UniProt Q16790): recorded pKi for assorted compounds
Please note pKi is a logarithmic value: minus log10 of concentration in mol/L. Answer with that number alone.

Query: API: value(readout=pKi, system=Carbonic anhydrase 9 (Homo sapiens, UniProt Q16790)) for record `Cc1cc(S(=O)(=O)NC(=N)Nc2nnc(S(N)(=O)=O)s2)c(SCc2ccc(C(F)(F)F)cc2)cc1Cl`
Response: 7.99

Query: API: value(readout=pKi, system=Carbonic anhydrase 9 (Homo sapiens, UniProt Q16790)) for record `Cc1cc(S(=O)(=O)NC(=N)NCc2ccc(S(N)(=O)=O)cc2)c(SCc2cccc(C(F)(F)F)c2)cc1Cl`
Response: 7.77

Query: API: value(readout=pKi, system=Carbonic anhydrase 9 (Homo sapiens, UniProt Q16790)) for record `Cc1cc(S(=O)(=O)NC(=N)Nc2ccccc2S(N)(=O)=O)c(SCc2cccc3ccccc23)cc1Cl`
Response: 6.86
